Data provenance: patent US20160040149A1

# Protocol Text: Saturation mutagenesis of SEQ ID NO:109: dicamba decarboxylation activity of point mutants (CO2 released), fold of backbone (Tables 7, 8, Megatable 1)
# Stated Conditions: decarboxylation activity (CO2 released) of point mutant vs unmutated backbone protein; backbone SEQ ID NO: 109
Assay Metric: Fold Activity

>  <Molecule>
152 (protein, Dicamba decarboxylase variant) MAQGKVALEEHFAIPETLQDSAGFVPGDYWKELQHRLLDIQDTRLKLMDAHGIETMILSLAAPAVQAIPDRRKAIEIARRANDFLAEECAKRPDRFLAFAALPLQDPDAATEELQRCVNDLGFVGALVNGFSVEGDGQTPLYYDLPQYRPFWGEVEKLDVPFYLHPRNPLPQDSRIYDGHPWLLGPTWAFAQETAVHALRLMASGLFDEHPRLNIILGHMGEGLPYMMYRIDHRIAWVKLPPRYPAKRRFMDYFNENFHITTSGNFRTQTLIDAILEIGADRILFSTDWPFENIDHAADWFNATSIAEADRVKIGRTNARRLFKLDGA

>  <Value Reported>
1.8 fold

$$$$
>  <Molecule>
3 (protein, listed as Lactobacillus plantarum) MAKLITVEEHFESAAVTAAMRQAVGNAVLPAVSPALRQYMRDNLPSPAIMQDTQHERLAFMAQYGIDMQVLSYGNSSPQNLSPEQAVPLSQLANDELAKAVVAHPDRYAGLAVLPVGDPQAAVAELNRAVTTLGLRGVLLKGNYQNKFFDEPFFLPIFEAAAALDVPVYFHPSFIPQAVTSHYFESNQWSDVVTGILSSAGYGWHMDVGIQVIRMIASGIFDKLPGLKLISGHWGELVPLFLERLDDELTTYTDLQYPFSTYYRHNVYVTPSGILSAPQLQFMLAEMGADHLMYSIDYPYKQPETSGSFLDIADLTDEQRAQIAFGTATTLFKL

>  <Value Reported>
0.9 fold

$$$$
